Origin of measurements: ChEMBL document CHEMBL3259662

Exercise: state measured selectivity ratio for each of the molecules provided.
- assay_info: Selectivity index, ratio of cytotoxicity for human SK-MEL cells to IC50 for Cryptococcus neoformans ATCC 90113
- Type: toxicity, cell-based
- details: read-out: Selectivity Index

Solved cases below.
{"structure_smiles": "COc1ccc(-c2nc(C[C@H](NC(=O)[C@H](CCCNC(=N)N)NC(=O)OC(C)(C)C)C(=O)N[C@@H](CCCNC(=N)N)C(=O)NCc3ccccc3)c[nH]2)cc1", "value_type": "selectivity ratio", "value_measured": "> 14.7"}
{"structure_smiles": "CC(C)(C)OC(=O)N[C@@H](CCCNC(=N)N)C(=O)N[C@@H](Cc1c[nH]c(-c2ccc(C(C)(C)C)cc2)n1)C(=O)N[C@@H](CCCNC(=N)N)C(=O)NCc1ccccc1", "value_type": "selectivity ratio", "value_measured": "> 55.6"}
{"structure_smiles": "N=C(N)NCCC[C@H](NC(=O)[C@H](Cc1c[nH]c(-c2ccccc2)n1)NC(=O)[C@@H](N)CCCNC(=N)N)C(=O)NCc1ccccc1", "value_type": "selectivity ratio", "value_measured": "> 13.7"}
{"structure_smiles": "COC(=O)[C@H](CCCNC(=N)N)NC(=O)[C@H](Cc1c[nH]c(-c2ccc(-c3ccccc3)cc2)n1)NC(=O)[C@@H](N)CCCNC(=N)N", "value_type": "selectivity ratio", "value_measured": "> 16.9"}

Kindly review the next molecule as well.
Quick note, selectivity ratio for "CC(C)(C)OC(=O)N[C@@H](CCCNC(=N)N)C(=O)N[C@@H](Cc1c[nH]c(-c2ccccc2)n1)C(=O)N[C@@H](CCCNC(=N)N)C(=O)NCc1ccccc1" landed at > 14.9

====

- assay_info: Selectivity index, ratio of cytotoxicity for pig LLC-PK1 cells to IC50 for Cryptococcus neoformans ATCC 90113
- Format: toxicity, cell-based
- details: read-out: Selectivity Index
Exercise: state measured selectivity ratio for each of the compounds provided.

Solved cases below.
{"structure_smiles": "COC(=O)[C@H](CCCNC(=N)N)NC(=O)[C@H](Cc1c[nH]c(-c2ccc(C(C)(C)C)cc2)n1)NC(=O)[C@H](CCCNC(=N)N)NC(=O)OC(C)(C)C", "selectivity ratio": "> 14.1"}
{"structure_smiles": "N=C(N)NCCC[C@H](NC(=O)[C@H](Cc1c[nH]c(-c2ccccc2)n1)NC(=O)[C@@H](N)CCCNC(=N)N)C(=O)NCc1ccccc1", "selectivity ratio": "> 13.7"}
{"structure_smiles": "COC(=O)[C@H](CCCNC(=N)N)NC(=O)[C@H](Cc1c[nH]c(-c2ccc(OC)cc2)n1)NC(=O)[C@@H](N)CCCNC(=N)N", "selectivity ratio": "> 2.5"}
{"structure_smiles": "N=C(N)NCCC[C@H](NC(=O)[C@H](Cc1c[nH]c(-c2ccc(-c3ccccc3)cc2)n1)NC(=O)[C@@H](N)CCCNC(=N)N)C(=O)NCc1ccccc1", "selectivity ratio": "> 100"}

Kindly review the next compound as well.
Quick note, selectivity ratio for "CC(C)(C)OC(=O)N[C@@H](CCCNC(=N)N)C(=O)N[C@@H](Cc1c[nH]c(-c2ccccc2)n1)C(=O)N[C@@H](CCCNC(=N)N)C(=O)NCc1ccccc1" landed at > 14.9

====

- assay_info: Selectivity index, ratio of cytotoxicity for African green monkey Vero cells to IC50 for Cryptococcus neoformans ATCC 90113
- Format: toxicity, cell-based
- details: read-out: Selectivity Index
Exercise: state measured selectivity ratio for each of the molecules provided.

Solved cases below.
{"structure_smiles": "COc1ccc(-c2nc(C[C@H](NC(=O)[C@H](CCCNC(=N)N)NC(=O)OC(C)(C)C)C(=O)N[C@@H](CCCNC(=N)N)C(=O)NCc3ccccc3)c[nH]2)cc1", "value_type": "selectivity ratio", "value_measured": "> 14.7"}
{"structure_smiles": "COC(=O)[C@H](CCCNC(=N)N)NC(=O)[C@H](Cc1c[nH]c(-c2ccc(-c3ccccc3)cc2)n1)NC(=O)[C@H](CCCNC(=N)N)NC(=O)OC(C)(C)C", "value_type": "selectivity ratio", "value_measured": "> 12.5"}
{"structure_smiles": "COC(=O)[C@H](CCCNC(=N)N)NC(=O)[C@H](Cc1c[nH]c(-c2ccc(C(C)(C)C)cc2)n1)NC(=O)[C@H](CCCNC(=N)N)NC(=O)OC(C)(C)C", "value_type": "selectivity ratio", "value_measured": "> 14.1"}
{"structure_smiles": "N=C(N)NCCC[C@H](NC(=O)[C@H](Cc1c[nH]c(-c2ccc(-c3ccccc3)cc2)n1)NC(=O)[C@@H](N)CCCNC(=N)N)C(=O)NCc1ccccc1", "value_type": "selectivity ratio", "value_measured": "> 100"}

Kindly review the next molecule as well.
Quick note, selectivity ratio for "Cc1ccc(-c2nc(C[C@H](NC(=O)[C@@H](N)CCCNC(=N)N)C(=O)N[C@@H](CCCNC(=N)N)C(=O)NCc3ccccc3)c[nH]2)cc1" landed at > 28.6

====

Exercise: state measured selectivity ratio for each of the compounds provided.
- assay_info: Selectivity index, ratio of cytotoxicity for human BT549 cells to IC50 for Cryptococcus neoformans ATCC 90113
- Format: toxicity, cell-based, BT-549
- details: read-out: Selectivity Index

Batch request: selectivity ratio per item, same order as input.
1. COC(=O)[C@H](CCCNC(=N)N)NC(=O)[C@H](Cc1c[nH]c(-c2ccc(OC)cc2)n1)NC(=O)[C@H](CCCNC(=N)N)NC(=O)OC(C)(C)C
2. CC(C)(C)OC(=O)N[C@@H](CCCNC(=N)N)C(=O)N[C@@H](Cc1c[nH]c(-c2ccccc2)n1)C(=O)N[C@@H](CCCNC(=N)N)C(=O)NCc1ccccc1
3. Cc1ccc(-c2nc(C[C@H](NC(=O)[C@@H](N)CCCNC(=N)N)C(=O)N[C@@H](CCCNC(=N)N)C(=O)NCc3ccccc3)c[nH]2)cc1
4. CC(C)(C)c1ccc(-c2nc(C[C@H](NC(=O)[C@@H](N)CCCNC(=N)N)C(=O)N[C@@H](CCCNC(=N)N)C(=O)NCc3ccccc3)c[nH]2)cc1
5. Cc1ccc(-c2nc(C[C@H](NC(=O)[C@H](CCCNC(=N)N)NC(=O)OC(C)(C)C)C(=O)N[C@@H](CCCNC(=N)N)C(=O)NCc3ccccc3)c[nH]2)cc1
6. CC(C)(C)OC(=O)N[C@@H](CCCNC(=N)N)C(=O)N[C@@H](Cc1c[nH]c(-c2ccc(-c3ccccc3)cc2)n1)C(=O)N[C@@H](CCCNC(=N)N)C(=O)NCc1ccccc1
7. COC(=O)[C@H](CCCNC(=N)N)NC(=O)[C@H](Cc1c[nH]c(-c2ccc(C(C)(C)C)cc2)n1)NC(=O)[C@H](CCCNC(=N)N)NC(=O)OC(C)(C)C

Found:
["> 2.5", "> 14.9", "> 28.6", "> 143", "> 4.6", "> 50", "> 14.1"]
